Attribution: ChEMBL document CHEMBL4138310

assayTarget: Protease (Human immunodeficiency virus 1)
assayName: Inhibition of recombinant HIV1 protease at 1 nM using H-Lys-Ala-Arg-Val-Tyr-Phe(p-NO2)-Glu-Ala-Nle-NH2 as substrate preincubated for 5 mins followed by substrate addition measured after 3 hrs by fluorescence-based assay
Each entry below carries its recorded inhibition.
# output: bare number, implied unit %

// solved cases for inhibition follow
moleculeSmiles	observedProperty	unitSpec	testValue
Cc1cccc(C)c1CNC(=O)[C@H]1N(C(=O)[C@@H](O)[C@H](Cc2ccccc2)NC(=O)[C@@H](NC(=O)COc2cccc(Nc3ccccc3)c2)[C@H]2CCOC2)CSC1(C)C	inhibition	%	93
C=C(C)CNC(=O)[C@H]1N(C(=O)[C@@H](O)[C@H](Cc2ccccc2)NC(=O)[C@@H](NC(=O)COc2cccc(N(C)C)c2)[C@H]2CCOC2)CSC1(C)C	inhibition	%	97

Next:
Prompt line: Fill in the blank: the reported inhibition of Cc1cccc(C)c1CNC(=O)[C@H]1N(C(=O)[C@@H](O)[C@H](Cc2ccccc2)NC(=O)[C@H](CC(N)=O)NC(=O)c2cc3ccccc3o2)CSC1(C)C is ____.
Response line: 97

* * *

Listed next: entries and their corresponding EC50.
System: Human immunodeficiency virus 1
assayName: Antiviral activity against wild-type HIV1 pNL4-3 infected in human MT4 cells assessed as inhibition of virus-induced cytopathic effect after 5 days in presence of 50 % of human serum by MTT assay
Format: functional, organism-based
conditionInfo: Human immunodeficiency virus 1, pNL4-3, MT4, 120 h
Number in nM, nothing else.

Known results for molecules:
moleculeSmiles	EC50 / nM
Cc1ccccc1CNC(=O)[C@H]1N(C(=O)[C@@H](O)[C@H](Cc2ccccc2)NC(=O)[C@@H](NC(=O)COc2cccc3cnccc23)[C@H]2CCOC2)CSC1(C)C	4350
Cc1cccc(C)c1CNC(=O)[C@H]1N(C(=O)[C@@H](O)[C@H](Cc2ccccc2)NC(=O)[C@@H](NC(=O)COc2cccc(Nc3ccccc3)c2)[C@H]2CCOC2)CSC1(C)C	103
C=C(C)CNC(=O)[C@H]1N(C(=O)[C@@H](O)[C@H](Cc2ccccc2)NC(=O)[C@@H](NC(=O)COc2cccc(N(C)C)c2)[C@H]2CCOC2)CSC1(C)C	49
CN(C)c1cccc(OCC(=O)N[C@H](C(=O)N[C@@H](Cc2ccccc2)[C@H](O)C(=O)N2CSC(C)(C)[C@H]2C(=O)NC2CCCC2)[C@H]2CCOC2)c1	103

Could you now consider this next molecule?
Prompt line: EC50 lookup needed for Cc1ccccc1CNC(=O)[C@H]1N(C(=O)[C@@H](O)[C@H](Cc2ccccc2)NC(=O)[C@@H](NC(=O)c2ccc3ccccc3n2)[C@H]2CCOC2)CSC1(C)C , thanks.
Response line: 411

* * *

Test system: Human immunodeficiency virus 1
assayName: Ratio of EC50 for wild-type HIV1 pNL4-3 infected in human MT4 in presence of 50% of human serum to EC50 for wild-type HIV-1 pNL4-3 infected in human MT4 in absence of human serum
Format: functional
Mark each entry True if its Ratio EC50 sits below 10, and False for all others.

Example entries and their recorded answers appear below.
moleculeSmiles	labelValue
Cc1ccccc1CNC(=O)[C@H]1N(C(=O)[C@@H](O)[C@H](Cc2ccccc2)NC(=O)[C@@H](NC(=O)c2cnc3ccccc3n2)[C@@H]2CCOC2)CSC1(C)C	False
Cc1cccc(C)c1CNC(=O)[C@H]1N(C(=O)[C@@H](O)[C@H](Cc2ccccc2)NC(=O)[C@@H](NC(=O)c2cc3ccccc3o2)[C@H]2CCOC2)CSC1(C)C	True
Cc1cccc(C)c1CNC(=O)[C@H]1N(C(=O)[C@@H](O)[C@H](Cc2ccccc2)NC(=O)[C@@H](NC(=O)COc2cccc(Nc3ccccc3)c2)[C@H]2CCOC2)CSC1(C)C	False
Cc1ccccc1CNC(=O)[C@H]1N(C(=O)[C@@H](O)[C@H](Cc2ccccc2)NC(=O)[C@@H](NC(=O)COc2cccc3cnccc23)[C@H]2CCOC2)CSC1(C)C	False
C=C(C)CNC(=O)[C@H]1N(C(=O)[C@@H](O)[C@H](Cc2ccccc2)NC(=O)[C@@H](NC(=O)COc2cccc(N(C)C)c2)[C@H]2CCOC2)CSC1(C)C	True

Prompt line: Ratio EC50 strictly < 10 for this compound? Cc1cccc(C)c1CNC(=O)[C@H]1N(C(=O)[C@@H](O)[C@H](Cc2ccccc2)NC(=O)[C@@H](NC(=O)COc2cccc3cnccc23)[C@H]2CCOC2)CSC1(C)C
Response line: True

Prompt line: Next up: Cc1cccc(C)c1CNC(=O)[C@H]1N(C(=O)[C@@H](O)[C@H](Cc2ccccc2)NC(=O)[C@@H](NC(=O)c2cc(=O)c3ccccc3o2)[C@H]2CCOC2)CSC1(C)C
Response line: False

Prompt line: # iterate: CN(C)c1cccc(OCC(=O)N[C@H](C(=O)N[C@@H](Cc2ccccc2)[C@H](O)C(=O)N2CSC(C)(C)[C@H]2C(=O)N[C@H]2c3ccccc3C[C@H]2O)[C@H]2CCOC2)c1
Response line: False

Prompt line: Lookup CN(C)c1cccc(OCC(=O)N[C@H](C(=O)N[C@@H](Cc2ccccc2)[C@H](O)C(=O)N2CSC(C)(C)[C@H]2C(=O)N[C@H]2CCc3ccccc32)[C@H]2CCOC2)c1
Response line: True

Prompt line: Now the compound Cc1ccccc1CNC(=O)[C@H]1N(C(=O)[C@@H](O)[C@H](Cc2ccccc2)NC(=O)[C@@H](NC(=O)c2cnc3ccccc3n2)[C@H]2CCOC2)CSC1(C)C
Response line: False
